Experimental Target: prostaglandin G/H synthase-2 (Ovis aries, UniProt P79208)
Construct: purified from sheep placenta; from tissue; host or cells: sheep placenta
Sequence (P79208 17-603): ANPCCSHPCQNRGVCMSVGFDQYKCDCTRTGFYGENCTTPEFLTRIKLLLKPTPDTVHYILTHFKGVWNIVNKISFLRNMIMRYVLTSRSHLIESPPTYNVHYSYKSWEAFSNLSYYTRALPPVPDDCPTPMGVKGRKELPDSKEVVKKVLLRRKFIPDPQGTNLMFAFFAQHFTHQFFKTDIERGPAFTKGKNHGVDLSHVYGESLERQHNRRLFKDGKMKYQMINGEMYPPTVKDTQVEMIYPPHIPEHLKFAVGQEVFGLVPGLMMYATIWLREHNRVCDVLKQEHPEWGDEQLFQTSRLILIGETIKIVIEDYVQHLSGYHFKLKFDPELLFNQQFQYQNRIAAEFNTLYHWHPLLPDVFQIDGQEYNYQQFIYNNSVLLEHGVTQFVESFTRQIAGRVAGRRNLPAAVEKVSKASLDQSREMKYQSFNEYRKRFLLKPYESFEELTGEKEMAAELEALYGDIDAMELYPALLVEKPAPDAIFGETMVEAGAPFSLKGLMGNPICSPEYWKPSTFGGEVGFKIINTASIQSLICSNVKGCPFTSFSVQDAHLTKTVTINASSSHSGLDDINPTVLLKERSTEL
Method: Inhibition of prostaglandin G/H synthase-2 (conversion of [14C]arachidonic acid to products)
Format: biochemical
Condition Parameters: 100 μM; enzyme purified from sheep placenta; 15 min preincubation, pH 7.4, room temperature
Experimental: The compounds of the present invention were evaluated as selective inhibitors of prostaglandin G/H synthase-2 by determining the effect of the compounds on the conversion of [^14 C]arachidonic acid to products by prostaglandin G/H synthase-2 purified from sheep placenta. This enzyme shares immunoreactivity and sequence homology with human prostaglandin G/H synthase-2. […]
Below is a list of entries, each paired with its recorded % Inhibition of PGHS-2 at 100 μM value.
Measurement Kind: % Inhibition of PGHS-2 at 100 μM

>>> print(df.to_string())
                                   compound                  measurement_kind  result
0  COC(=O)CSC1c2ccccc2Oc2ccccc21 [Example 16, Methyl (xanthen-9-yl-thio)acetate]  % Inhibition of PGHS-2 at 100 μM     85%
1      COC(=O)CSC(c1ccc(OC)cc1)c1ccc(OC)cc1  % Inhibition of PGHS-2 at 100 μM     74%
2  COC(=O)CSC(c1ccc(OC)cc1)(c1ccc(OC)cc1)c1ccc(OC)cc1  % Inhibition of PGHS-2 at 100 μM     86%
3        COC(=O)CSC(c1ccc(F)cc1)c1ccc(F)cc1  % Inhibition of PGHS-2 at 100 μM     40%
4      COC(=O)CSC(c1ccc(Cl)cc1)c1ccc(Cl)cc1  % Inhibition of PGHS-2 at 100 μM     46%

----------
Experimental Target: prostaglandin G/H synthase-2 (Ovis aries, UniProt P79208)
Construct: purified from sheep placenta; from tissue; host or cells: sheep placenta
Method: Inhibition of prostaglandin G/H synthase-2 (conversion of [14C]arachidonic acid to products)
Format: biochemical
Condition Parameters: pH 7.4, read-out: % Inhibition of PGHS-2 at 100 μM, 100 μM; enzyme purified from sheep placenta; 15 min preincubation, pH 7.4, room temperature
Protocol: The compounds of the present invention were evaluated as selective inhibitors of prostaglandin G/H synthase-2 by determining the effect of the compounds on the conversion of [^14 C]arachidonic acid to products by prostaglandin G/H synthase-2 purified from sheep placenta. This enzyme shares immunoreactivity and sequence homology with human prostaglandin G/H synthase-2. […]
Below is a list of entries, each paired with its recorded inhibition at 100 µM value.
Measurement Kind: inhibition at 100 µM (%)

                                   molecule      measurement_kind  numeric_readout
0  COC(=O)CSC(c1ccc(F)cc1)c1ccc(F)cc1 [Example 5]  inhibition at 100 µM               52
1  COC(=O)CSC(c1ccccc1OC)c1ccccc1OC [Example 8]  inhibition at 100 µM               77
2  COC(=O)CSC(c1ccc(C)cc1)c1ccc(C)cc1 [Example 6]  inhibition at 100 µM               52
3  COC(=O)CSC(c1ccccc1Cl)c1ccccc1Cl [Example 7]  inhibition at 100 µM               37
4  COC(=O)CSC(c1ccc(Cl)cc1)c1ccc(Cl)cc1 [Example 3]  inhibition at 100 µM               45
5  COC(=O)CSC(c1ccccc1)c1ccccc1 [Example 1, Methyl [(diphenylmethyl)thio]acetate]  inhibition at 100 µM               84
6  COC(=O)CSC(c1ccc(OC)cc1)c1ccc(OC)cc1 [Example 2]  inhibition at 100 µM               79

Source: patent US5571825A
